This collection of values is drawn from patent US20240116985A1.

- subject of test: full-length beta-Catenin (Uniprot ID P35222) (Homo sapiens (Human)) (UniProt P35222)
- Sequence (P35222 whole entry): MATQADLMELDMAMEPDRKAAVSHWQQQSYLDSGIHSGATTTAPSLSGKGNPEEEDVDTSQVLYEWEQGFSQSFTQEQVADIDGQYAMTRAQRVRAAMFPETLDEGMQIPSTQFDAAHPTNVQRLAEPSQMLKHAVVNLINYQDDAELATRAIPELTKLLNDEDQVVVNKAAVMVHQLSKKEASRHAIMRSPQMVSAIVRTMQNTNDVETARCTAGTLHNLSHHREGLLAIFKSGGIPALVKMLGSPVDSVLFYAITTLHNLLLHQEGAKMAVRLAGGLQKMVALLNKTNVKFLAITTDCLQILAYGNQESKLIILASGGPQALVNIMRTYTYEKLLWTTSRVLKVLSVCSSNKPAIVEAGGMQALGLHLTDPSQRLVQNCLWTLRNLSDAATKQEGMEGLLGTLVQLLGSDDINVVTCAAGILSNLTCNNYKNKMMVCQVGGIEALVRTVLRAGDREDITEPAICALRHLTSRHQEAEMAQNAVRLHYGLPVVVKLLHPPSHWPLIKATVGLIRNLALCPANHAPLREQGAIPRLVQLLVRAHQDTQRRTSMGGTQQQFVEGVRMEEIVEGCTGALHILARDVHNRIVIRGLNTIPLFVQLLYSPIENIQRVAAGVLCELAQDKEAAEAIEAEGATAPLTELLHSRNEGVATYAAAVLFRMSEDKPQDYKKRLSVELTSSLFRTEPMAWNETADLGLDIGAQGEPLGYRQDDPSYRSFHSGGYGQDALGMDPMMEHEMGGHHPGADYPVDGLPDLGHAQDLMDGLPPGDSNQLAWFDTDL
- procedure text: fluorescence polarization competition; 10 nM full-length beta-catenin + 10 nM 5FAM-TCF4(10-53) probe
Starred links: 1 amine or outer side, 2 acyl side, 3 side chain; linkers in the order of their positions; H or OH if unused. Positions of bridges follow the written chain, without caps; N, C: chain ends. Non-standard residues stand in square brackets, D forms with d. Primed or numbered codes have the meaning given here. PyrS2″ = (S)-3-amino-1-((pent-4-en-1-yloxy)carbonyl)pyrrolidine-3-carboxylic acid (stapling residue), C=CCCCOC(=O)N1CC[C@@](N[*:1])(C(=O)[*:2])C1; B5(18) = 2,2-bis(4-pentenyl)glycine (2-amino-2-(pent-4-en-1-yl)hept-6-enoic acid), stitching residue, C=CCCCC(CCCC=C)(N[*:1])C(=O)[*:2]; PyrS2 = (S)-3-amino-1-((pent-4-en-1-yloxy)carbonyl)pyrrolidine-3-carboxylic acid, C=CCCCOC(=O)N1CC[C@@](N[*:1])(C(=O)[*:2])C1; R6 = (R)-2-amino-2-methyloct-7-enoic acid, C=CCCCC[C@@](C)(N[*:1])C(=O)[*:2]; Phe(2-Cl) = N[C@@H](Cc1ccccc1Cl)C(=O)O; dαMeGly(allyl) = C=CC[C@@](C)(N)C(=O)O; Bta = N[C@@H](Cc1csc2ccccc12)C(=O)O; αAllylPro = C=CC[C@@]1(C(=O)O)CCCN1; tBuAla = CC(C)(C)C[C@H](N)C(=O)O; 3Thi = N[C@@H](Cc1ccsc1)C(=O)O
Reported pIC50 by item:
Would you please state pIC50, meaning minus log10 of the concentration in mol/L, as a bare number?

Worked set:
1. Ac-[αAllylPro]D[tBuAla][B5(18)]DNAAFT[PyrS2″][Phe(2-Cl)][Bta]S-NH2 (staple 1-4, 4-11) [I-1016] | 8.10
2. Ac-PD[tBuAla][dαMeGly(allyl)]DDAAFL[PyrS2][3Thi][Bta]Q-NH2 (staple 4-11; not fully specified; printed as Ac-Pro-Asp-Npg-R3-Asp-Asp-Ala-Ala-Phe-Leu-PyrS2-3Thi-BztA-Gln-NH2; also: staple -CH=CH- reduced to -CH2-CH2-) [I-1993] | 6.14

Now consider the entry below.
**Query** Suppose we examine the binder Ac-PD[tBuAla][R6]DDAAFL[PyrS2][3Thi][Bta]Q-NH2 (staple 4-11; not fully specified; printed as Ac-Pro-Asp-Npg-R6-Asp-Asp-Ala-Ala-Phe-Leu-PyrS2-3Thi-BztA-Gln-NH2; also: staple -CH=CH- reduced to -CH2-CH2-) [I-1991] ; what pIC50 value has been reported?
**Result** 6.40
